Exercise: for every item that follows, state its recorded residual activity.
biological target: MAP2K1 (human); assay: radiometric filter-binding kinase assay; settings: compound 0.1 µM
All answers are understood in %, so give the number only.

Short answer for "COc1ccc(N(C(=O)Nc2c(C)cccc2C)c2cc(Nc3ccc(N4CCN(C)CC4)cc3)ncn2)c(OC)c1" : residual activity was 106

Short answer for "O=C(N[C@@H](COc1ccc2[nH]c(=O)[nH]c2c1)c1ccccc1)c1cccn(Cc2ccc(F)c(F)c2)c1=O" : residual activity was 100

Short answer for "O=C(NCCCNc1nc(Nc2cccc(CN3CCOCC3)c2)ncc1C1CC1)C1CCC1" : residual activity was 92

Short answer for "COc1ccc(-n2ncc3cnc(Nc4cc(OC)c(OC)c(OCCCN5CCN(C)CC5)c4)nc32)cc1" : residual activity was 40

Short answer for "Cc1ccc(Sc2cnc(Nc3cccc(Br)n3)s2)cc1C(=O)N1CCN(C(=O)CN)CC1" : residual activity was 96

###

biological target: HIPK1 (human); assay: radiometric filter-binding kinase assay; conditions: compound 10.0 µM
Exercise: for every item that follows, state its recorded residual activity.
All answers are understood in %, so give the number only.

Short answer for "COc1cc(C(=O)N2CCOCC2)c(F)cc1Nc1ncc(C(F)(F)F)c(NC2CC2)n1" : residual activity was 49

Short answer for "CCn1c(-c2nonc2N)nc2cncc(CNC3CCNCC3)c21" : residual activity was 84

Short answer for "CCOC(=O)c1ccc(N2NC(=O)/C(=C/c3ccc([N+](=O)[O-])o3)C2=O)cc1" : residual activity was 98

Short answer for "Cc1ccc(Sc2cnc(Nc3cccc(Br)n3)s2)cc1C(=O)N1CCN(C(=O)CN)CC1" : residual activity was 5

Short answer for "Cc1ccc2c(c1)C(=O)[C@@]1(O)CCN(c3ccccc3)C1=N2" : residual activity was 88

Short answer for "CC(C)(C#N)c1ccc(N2C(=O)OCc3cnc4ccc(-c5cnc6ccccc6c5)cc4c32)cc1" : residual activity was 97

Short answer for "c1ccc2c(-c3cnn4cc(-c5ccc(N6CCNCC6)cc5)cnc34)ccnc2c1" : residual activity was 85

Short answer for "CN1C(=O)[C@@H](Cc2c[nH]c3ccccc23)NC1=S" : residual activity was 91

Short answer for Nc1cccc2c1CN(C1CCC(=O)NC1=O)C2=O (stereo not given) : residual activity was 101

Short answer for CC(C)C[C@H](NC(=O)CNC(=O)c1cc(Cl)ccc1Cl)B1OC(=O)CC(CC(=O)O)(C(=O)O)O1 (stereo not given in full) : residual activity was 111

###

target: MAPK14 (human); experiment: radiometric filter-binding kinase assay; conditions: compound 1.0 µM
Assign labels as follows, please: Satisfied for residual activity below 90%; Not satisfied for residual activity equal to or exceeding 90%.

Q. Bench note: check whether "CCCCCc1ccc(/C=C/[C@H](O)[C@@H](CO)NC)cc1" shows residual activity below 90%
A. Satisfied

Q. Bench note: check whether CNC(=O)C1[C@H]2O[C@@](C)([C@@H]1N)n1c3ccccc3c3c4c(c5c6ccccc6n2c5c31)C(=O)NC4 (stereo not given in full) shows residual activity below 90%
A. Not satisfied

Q. Bench note: check whether "NC(=O)Nc1ccc2c(c1)/C(=C/c1cc(-c3cccnc3)c[nH]1)C(=O)N2" shows residual activity below 90%
A. Satisfied

Q. Bench note: check whether "CCCC(CCC)C(=O)O" shows residual activity below 90%
A. Satisfied

Q. Bench note: check whether "NC(=O)c1ccc(-c2ccc(Oc3cncc4sc(-c5nn[nH]n5)cc34)cc2)cc1" shows residual activity below 90%
A. Not satisfied

Q. Bench note: check whether C=C1C(=O)OC2C1CC/C(C)=C/CCC1(C)OC21 (stereo not given) shows residual activity below 90%
A. Not satisfied

Q. Bench note: check whether "CC(C)(C#N)c1ccc(N2C(=O)OCc3cnc4ccc(-c5cnc6ccccc6c5)cc4c32)cc1" shows residual activity below 90%
A. Not satisfied

Q. Bench note: check whether "Cc1cc(SCc2sc(-c3ccc(C(F)(F)F)cc3)nc2C)ccc1OCC(=O)O" shows residual activity below 90%
A. Satisfied

Q. Bench note: check whether "NC(=O)c1c(NC(=O)C2CC2)sc2c1CCCC2" shows residual activity below 90%
A. Not satisfied

Q. Bench note: check whether "CNc1nc(-c2ccc3c(N)n[nH]c3c2)cc(N2C[C@@H](C(=O)NC3CCCCC3)CC[C@H]2C)n1" shows residual activity below 90%
A. Not satisfied

Q. Bench note: check whether "COc1ccc(N(C(=O)Nc2c(C)cccc2C)c2cc(Nc3ccc(N4CCN(C)CC4)cc3)ncn2)c(OC)c1" shows residual activity below 90%
A. Satisfied

Q. Bench note: check whether "NC(=O)c1cc(-c2ccnc(NC3CCCCC3)c2)nc(N2CCNCC2)c1" shows residual activity below 90%
A. Not satisfied

Q. Bench note: check whether "CCc1cncnc1N1CCN(Cc2nc3cc(C(F)(F)F)ccc3[nH]2)CC1" shows residual activity below 90%
A. Satisfied

Q. Bench note: check whether "FC(F)(F)c1ccc(-c2ccc(Oc3cncc4sc(-c5nn[nH]n5)cc34)cc2)cc1" shows residual activity below 90%
A. Not satisfied

Q. Bench note: check whether "COc1cc(O)c2c(c1)/C=C/C[C@H](O)[C@H](O)C(=O)/C=C\C[C@H](C)OC2=O" shows residual activity below 90%
A. Satisfied

###

target: GSK3B (human) (UniProt P49841); assay: radiometric filter-binding kinase assay; settings: compound 1.0 µM
Sequence (P49841 whole entry, looked up): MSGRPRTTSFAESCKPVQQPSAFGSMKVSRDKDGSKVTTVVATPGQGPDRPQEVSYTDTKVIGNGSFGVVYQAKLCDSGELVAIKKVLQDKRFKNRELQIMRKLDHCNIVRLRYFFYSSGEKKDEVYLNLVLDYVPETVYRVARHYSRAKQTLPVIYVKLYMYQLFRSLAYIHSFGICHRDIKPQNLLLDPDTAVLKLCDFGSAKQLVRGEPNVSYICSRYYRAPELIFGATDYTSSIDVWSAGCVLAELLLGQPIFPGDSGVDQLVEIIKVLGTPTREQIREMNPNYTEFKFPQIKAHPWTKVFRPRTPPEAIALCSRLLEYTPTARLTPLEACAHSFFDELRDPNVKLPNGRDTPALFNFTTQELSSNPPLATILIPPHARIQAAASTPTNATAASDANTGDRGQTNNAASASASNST
reported property: residual activity (%)
All answers are understood in %, so give the number only.

Short answer for O=C1Nc2nc(-c3c(O)cccc3OCC3CC3)cc(C3CCCNC3)c2CO1 (stereo not given) : residual activity was 126

Short answer for "CC(C)(C#N)c1ccc(N2C(=O)OCc3cnc4ccc(-c5cnc6ccccc6c5)cc4c32)cc1" : residual activity was 74

Short answer for "Oc1ccc(/C=C/c2cc(O)cc(O)c2)cc1" : residual activity was 100

Short answer for "Cc1nc(-c2ccc(OCC(C)C)c(C#N)c2)sc1C(=O)O" : residual activity was 90

Short answer for "O=C(NOC[C@H](O)CO)c1ccc(F)c(F)c1Nc1ccc(I)cc1Cl" : residual activity was 70

Short answer for "O=C(N[C@@H](COc1ccc2[nH]c(=O)[nH]c2c1)c1ccccc1)c1cccn(Cc2ccc(F)c(F)c2)c1=O" : residual activity was 96

Short answer for "CCn1c(-c2nonc2N)nc2cncc(CNC3CCNCC3)c21" : residual activity was 66

Short answer for "O=c1c(O)c(-c2ccc(O)c(O)c2)oc2cc(O)c(O)c(O)c12" : residual activity was 94

Short answer for "Cc1cc(NC(=O)c2cccc(NC(=O)/C=C/CN(C)C)c2)ccc1Nc1nccc(-c2cccnc2)n1" : residual activity was 90

Short answer for "c1ccc2c(-c3cnn4cc(-c5ccc(N6CCNCC6)cc5)cnc34)ccnc2c1" : residual activity was 83

###

system: AKT2 (human), P31751 [S474D]; assay: radiometric filter-binding kinase assay; details: compound 0.01 µM
Sequence (P31751 whole entry S474D, looked up): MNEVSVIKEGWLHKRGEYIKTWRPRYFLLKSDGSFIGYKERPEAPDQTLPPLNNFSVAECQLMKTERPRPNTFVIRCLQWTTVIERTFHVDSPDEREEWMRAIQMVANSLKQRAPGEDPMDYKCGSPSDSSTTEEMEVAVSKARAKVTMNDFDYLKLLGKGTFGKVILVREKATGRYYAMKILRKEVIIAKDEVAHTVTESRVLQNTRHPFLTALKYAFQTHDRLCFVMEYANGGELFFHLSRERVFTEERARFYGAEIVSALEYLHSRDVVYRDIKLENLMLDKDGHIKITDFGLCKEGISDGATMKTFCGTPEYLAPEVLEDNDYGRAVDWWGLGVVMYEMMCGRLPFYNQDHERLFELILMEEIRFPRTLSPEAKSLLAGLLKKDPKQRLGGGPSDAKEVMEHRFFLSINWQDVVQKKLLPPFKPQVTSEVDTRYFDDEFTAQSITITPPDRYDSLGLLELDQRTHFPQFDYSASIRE
reported property: residual activity (%)
All answers are understood in %, so give the number only.

Short answer for "CNc1nc(-c2ccc3c(N)n[nH]c3c2)cc(N2C[C@@H](C(=O)NC3CCCCC3)CC[C@H]2C)n1" : residual activity was 125

Short answer for "COc1ccc(N(C(=O)Nc2c(C)cccc2C)c2cc(Nc3ccc(N4CCN(C)CC4)cc3)ncn2)c(OC)c1" : residual activity was 83

Short answer for "O=C(Nc1nc2cc(C(F)(F)F)cc(NC3CC3)n2n1)c1cccnc1" : residual activity was 97

Short answer for CNC(=O)C1[C@H]2O[C@@](C)([C@@H]1N)n1c3ccccc3c3c4c(c5c6ccccc6n2c5c31)C(=O)NC4 (stereo partly specified) : residual activity was 109

Short answer for "C/C(=C1/C(=O)Nc2ccc(NC(N)=O)cc21)c1ccc[nH]1" : residual activity was 82

Short answer for COc1cc(O)c2c(c1)[C@H]1OC1C[C@H](O)[C@H](O)C(=O)/C=C\C[C@H](C)OC2=O (stereo partly specified) : residual activity was 105

###

target: AURKB (human); assay: radiometric filter-binding kinase assay; conditions: compound 10.0 µM
Each entry gets f if its residual activity stays under 40%, and t if its residual activity is 40% or above.

Q. Check if residual activity >= 40% (inclusive). Item: "Cc1nc(-c2ccc(OCC(C)C)c(C#N)c2)sc1C(=O)O"
A. t

Q. Check if residual activity >= 40% (inclusive). Item: O=C(NOCC(O)CO)c1ccc(F)c(F)c1Nc1ccc(I)cc1Cl (stereo not given)
A. t

Q. Check if residual activity >= 40% (inclusive). Item: "O=C(Nc1ccccc1-c1cn2c(CN3CCNCC3)csc2n1)c1cnc2ccccc2n1"
A. t

Q. Check if residual activity >= 40% (inclusive). Item: CC1=C(CO)C(=O)O[C@@H]([C@@H](C)[C@H]2CC[C@H]3[C@@H]4C[C@H]5O[C@]56[C@@H](O)C=CC(=O)[C@]6(C)C4CC[C@]23C)C1 (stereo not given in full)
A. f

Q. Check if residual activity >= 40% (inclusive). Item: "CCNc1nc(Nc2cc(F)c(C(=O)N3CCOCC3)cc2OC)ncc1C(F)(F)F"
A. f

Q. Check if residual activity >= 40% (inclusive). Item: "NCC(=O)Nc1ccc(-n2nc(C(F)(F)F)cc2-c2ccc3c(ccc4ccccc43)c2)cc1"
A. t

Q. Check if residual activity >= 40% (inclusive). Item: "O=C1NC(=S)N[C@@H]1Cc1c[nH]c2ccccc12"
A. t

Q. Check if residual activity >= 40% (inclusive). Item: "O=c1c(O)c(-c2ccc(O)c(O)c2)oc2cc(O)c(O)c(O)c12"
A. f

Q. Check if residual activity >= 40% (inclusive). Item: "N#Cc1c(C2CCNCC2)cc(-c2c(O)cccc2OCC2CC2)nc1N"
A. t

Q. Check if residual activity >= 40% (inclusive). Item: "CCn1c(-c2nonc2N)nc2cncc(CNC3CCNCC3)c21"
A. t
